- experimental.target: CDK2 (Homo sapiens)
- experiment.summary: CDK2 inhibition
- Type: biochemical
assay.metric: IC50 (µM)

query.smiles	unit.of.measurement	IC50
Cc1nc2ccc(C(F)(F)F)cn2c1-c1ccnc(Nc2ccc(C(=O)NO)cc2)n1	µM	0.07
Cc1nc2cc(CN(C)C)ccn2c1-c1ccnc(Nc2ccc(C(=O)Nc3ccccc3N)cc2)n1	µM	1.61
Cc1nc2ccccn2c1-c1ccnc(Nc2ncc(C(=O)NO)cn2)c1	µM	6.47

a = Cc1nc2cc(C(F)(F)F)ccn2c1-c1ccnc(Nc2ccc(C(=O)Nc3ccccc3N)cc2)n1
b = Cc1nc2ccccn2c1-c1ccnc(Nc2cccc(C(=O)NO)c2)n1
c = Cc1nc2ccccn2c1-c1ccnc(Nc2ccc(C(=O)NO)cc2)c1
d = Cc1nc2cc(C(=O)NCCN3CCOCC3)ccn2c1-c1ccnc(Nc2ccc(C(=O)Nc3ccccc3N)cc2)n1
Query: Hey, quick one: sort these by IC50, largest value first please. Answer format: the labels, in the requested order.
Result: c, d, b, a
(c: 3.6 µM, d: 1.03 µM, b: 0.18 µM, a: 0.084 µM)

P = COC(=O)c1ccn2c(-c3ccnc(Nc4ccc(C(=O)Nc5ccccc5N)cc4)n3)c(C)nc2c1
Q = Cc1nc2ccccn2c1-c1ccnc(Nc2nc(C(=O)Nc3ccccc3N)cs2)n1
R = COCCOc1ccc2nc(C)c(-c3ccnc(Nc4ccc(C(=O)Nc5ccccc5N)cc4)n3)n2c1
Query: Arrange the 3 entries by IC50 so the values rise. Answer format: the labels, in the requested order.
Result: P, Q, R

A = Cc1nc2cc(OCCN3CCOCC3)ccn2c1-c1ccnc(Nc2ccc(C(=O)Nc3ccccc3N)cc2)n1
B = Cc1nc2ccccn2c1-c1ccnc(Nc2ccc(C(=O)NO)cn2)n1
Query: Select one: A or B . Criterion: greater recorded IC50. Label of pick, please.
Result: A
(A: 2.13 µM, B: 0.52 µM)

###

- experimental.target: UniProt Q13547
- experiment.summary: HDAC 1 inhibition assay with about 3 hours enzyme/compound preincubation (fluorophore/quencher peptide substrate)
- Format: biochemical
- run.conditions: 3-hour preincubation of enzyme with compound; read-out: HDAC 1 inhibitory activity (IC50 [μM]) (3-hour preincubation)
assay.metric: IC50 (µM)

compound	unit.of.measurement	IC50
Cc1nc2ccccn2c1-c1ccnc(Nc2ccc(C(=O)NO)cn2)c1 [Example 69]	µM	0.141

I = COc1ccn2c(-c3ccnc(Nc4ccc(C(=O)NO)cc4)n3)c(C(F)(F)F)nc2c1 [Example 49]
II = Cc1nc2cc(C(=O)O)ccn2c1-c1ccnc(Nc2ccc(C(=O)Nc3ccccc3N)cc2)n1 [Example 28]
Query: Could you tell me which of I and II has the lower IC50 reading? Label of pick, please.
Result: I

###

- experimental.target: HDAC 1 (Homo sapiens)
- Sequence (Q13547 whole entry, species assumed): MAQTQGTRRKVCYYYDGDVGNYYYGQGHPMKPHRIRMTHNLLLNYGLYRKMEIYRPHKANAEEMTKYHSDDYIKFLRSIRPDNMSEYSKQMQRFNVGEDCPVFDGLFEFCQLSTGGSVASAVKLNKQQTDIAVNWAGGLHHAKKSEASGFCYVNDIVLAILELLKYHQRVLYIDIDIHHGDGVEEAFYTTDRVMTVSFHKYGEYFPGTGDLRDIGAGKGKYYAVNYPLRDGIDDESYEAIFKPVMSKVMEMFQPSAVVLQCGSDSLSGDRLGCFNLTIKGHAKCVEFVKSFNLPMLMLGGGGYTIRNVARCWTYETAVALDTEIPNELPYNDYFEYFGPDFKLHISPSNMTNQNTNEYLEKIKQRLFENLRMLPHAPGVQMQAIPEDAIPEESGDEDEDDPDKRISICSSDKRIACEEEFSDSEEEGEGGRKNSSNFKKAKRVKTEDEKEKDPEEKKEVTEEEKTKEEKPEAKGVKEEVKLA
- experiment.summary: HDAC 1 inhibition assay with about 3 hours enzyme/compound preincubation (fluorophore/quencher peptide substrate)
- Format: biochemical
- run.conditions: 3-hour preincubation of enzyme with compound; read-out: HDAC 1 inhibitory activity (IC50 [μM]) (3-hour preincubation)
assay.metric: IC50 (µM)

Example compounds with recorded IC50:
query.smiles	unit.of.measurement	IC50
Cc1nc2cccnn2c1-c1ccnc(Nc2ccc(C(=O)NO)cc2)n1	µM	0.273
Cc1nc2c(F)cccn2c1-c1ccnc(Nc2ccc(C(=O)Nc3ccccc3N)cc2)n1	µM	0.178
Cc1nc2cc(C#N)ccn2c1-c1ccnc(Nc2ccc(C(=O)Nc3ccccc3N)cc2)n1	µM	0.18

P = Cc1nc2c(F)cccn2c1-c1ccnc(Nc2ccc(C(=O)NO)cc2)n1
Q = Cc1nc2ccccn2c1-c1ccnc(Nc2ccc(C(=O)Nc3ccccc3N)cc2)n1
R = Cc1nc2cc(N3CCOCC3)ccn2c1-c1ccnc(Nc2ccc(C(=O)Nc3ccccc3N)cc2)n1
S = Cc1nc2ccccn2c1-c1ccnc(Nc2nc(C(=O)NO)cs2)n1
Query: Arrange the 4 entries by IC50 so the values rise. Answer format: the labels, in the requested order.
Result: Q, P, S, R

###

- experimental.target: HDAC 1 (Homo sapiens)
- experiment.summary: HDAC 1 inhibition assay with about 3 hours enzyme/compound preincubation (fluorophore/quencher peptide substrate)
- Format: biochemical
- run.conditions: 3-hour preincubation of enzyme with compound; read-out: HDAC 1 inhibitory activity (IC50 [μM]) (3-hour preincubation)
assay.metric: IC50 (µM)

Example compounds with recorded IC50:
query.smiles	unit.of.measurement	IC50
Cc1nc2cc(CN(C)C)ccn2c1-c1ccnc(Nc2ccc(C(=O)Nc3ccccc3N)cc2)n1	µM	0.13
Cc1nc2cccnn2c1-c1ccnc(Nc2ccc(C(=O)Nc3ccccc3N)cc2)n1	µM	0.0239
Cc1nc2cc(OCCN(C)C)ccn2c1-c1ccnc(Nc2ccc(C(=O)Nc3ccccc3N)cc2)n1	µM	0.118

a = Cc1nc2ccccn2c1-c1ccnc(Nc2cccc(C(=O)NO)c2)n1
b = Cc1nc2cnccn2c1-c1ccnc(Nc2ccc(C(=O)NO)cc2)n1
c = Cc1nc2cc(NCCN(C)C)ccn2c1-c1ccnc(Nc2ccc(C(=O)Nc3ccccc3N)cc2)n1
d = O=C(NO)c1cccc(Nc2nccc(-c3cnc4ccccn34)n2)c1
Query: Arrange the 4 entries by IC50 so the values rise. Answer format: the labels, in the requested order.
Result: a, d, b, c
(a: 0.011 µM, d: 0.017 µM, b: 0.0937 µM, c: 0.141 µM)

A = Nc1ccccc1NC(=O)c1ccc(N(CC(F)(F)F)c2nccc(-c3cnc4ccccn34)n2)cc1
B = Cc1nc2ccccn2c1-c1ccnc(Nc2cc(C(=O)Nc3ccccc3N)cs2)n1
Query: Select one: A or B . Criterion: greater recorded IC50. Label of pick, please.
Result: A
(A: 5.58 µM, B: 0.993 µM)

###

- experimental.target: UniProtKB Q13547
- experiment.summary: HDAC 1 inhibition assay with about 3 hours enzyme/compound preincubation (fluorophore/quencher peptide substrate)
- Assay type: biochemical
- run.conditions: 3-hour preincubation of enzyme with compound; read-out: HDAC 1 inhibitory activity (IC50 [μM]) (3-hour preincubation)
assay.metric: IC50

query.smiles	experimental.target	IC50
Cc1nc2ccccn2c1-c1ccnc(Nc2ccc(C(=O)Nc3ccccc3N)c(F)c2)n1	UniProtKB Q13547	> 10 µM
Nc1ccccc1NC(=O)c1cccc(Nc2nccc(-c3cnc4ccccn34)n2)c1	UniProtKB Q13547	> 50 µM

Here's the next entry for you.
Query: Request body: readout IC50, system UniProtKB Q13547, query "Cc1nc2ccccn2c1-c1ccnc(Nc2cccc(C(=O)Nc3ccccc3N)c2)n1" . Return the value.
Result: > 50 µM

###

- experimental.target: UniProt P24941
- experiment.summary: CDK2 inhibition
- Type: biochemical
assay.metric: IC50 (µM)

Example compounds with recorded IC50:
compound	IC50 / µM
Cc1nc2c(F)cccn2c1-c1ccnc(Nc2ccc(C(=O)Nc3ccccc3N)cc2)n1 [Example 45]	0.35
O=C(NO)c1ccc(N(CC(F)(F)F)c2nccc(-c3cnc4ccccn34)n2)cc1 [Example 57]	2.87

a = Cc1nc2cc(NCCN(C)C)ccn2c1-c1ccnc(Nc2ccc(C(=O)Nc3ccccc3N)cc2)n1 [Example 32]
b = Cc1nc2cc(C#N)ccn2c1-c1ccnc(Nc2ccc(C(=O)Nc3ccccc3N)cc2)n1 [Example 24]
c = Cc1nc2cc(OCCN(C)C)ccn2c1-c1ccnc(Nc2ccc(C(=O)Nc3ccccc3N)cc2)n1 [Example 30]
Query: Arrange the 3 entries by IC50 so the values rise. Answer format: the labels, in the requested order.
Result: b, c, a
(b: 0.5 µM, c: 1.07 µM, a: 2.58 µM)

I = COCCOc1ccn2c(-c3ccnc(Nc4ccc(C(=O)Nc5ccccc5N)cc4)n3)c(C)nc2c1 [Example 31]
II = Cc1nc2ncccn2c1-c1ccnc(Nc2ccc(C(=O)NO)cc2)n1 [Example 21]
III = Cc1nc2ccccn2c1-c1ccnc(Nc2ccc(C(=O)Nc3ccccc3N)cc2)n1 [Example 2]
Query: Arrange the 3 entries by IC50 so the values rise. Answer format: the labels, in the requested order.
Result: III, I, II
(III: 0.134 µM, I: 0.4 µM, II: 1.18 µM)

I = Cc1nc2ccccn2c1-c1ccnc(Nc2nc(C(=O)NO)cs2)n1 [Example 61]
II = Cc1nc2ncccn2c1-c1ccnc(Nc2ccc(C(=O)Nc3ccccc3N)cc2)n1 [Example 22]
III = O=C(NO)c1ccc(Nc2ncc(F)c(-c3cnc4ccccn34)n2)cc1 [Example 51]
IV = Cc1nc2ccccn2c1-c1ccnc(Nc2ccc(C(=O)Nc3ccccc3N)c(F)c2)n1 [Example 36]
Query: Hey, quick one: sort these by IC50, largest value first please. Answer format: the labels, in the requested order.
Result: II, I, IV, III

###

- experimental.target: CDK2 (Homo sapiens)
- experiment.summary: CDK2 inhibition
- Assay type: biochemical
assay.metric: IC50 (µM)

Example compounds with recorded IC50:
query.smiles	measured
COc1ccn2c(-c3ccnc(Nc4ccc(C(=O)Nc5ccccc5N)cc4)n3)c(C)nc2c1	0.06
Cc1nc2cc(N3CCOCC3)ccn2c1-c1ccnc(Nc2ccc(C(=O)Nc3ccccc3N)cc2)n1	0.67
Cc1nc2ccccn2c1-c1ccnc(Nc2cc(C(=O)Nc3ccccc3N)cs2)n1	0.04

1 = Cc1nc2ccccn2c1-c1ccnc(Nc2ccc(C(=O)NO)c(F)c2)n1
2 = Cc1nc2ccccn2c1-c1ccnc(Nc2ccc(C(=O)Nc3ccccc3N)cn2)c1
Query: Could you tell me which of 1 and 2 has the lower IC50 reading? Label of pick, please.
Result: 1
(1: 0.06 µM, 2: 0.87 µM)
